Provenance of the data: PubChem BioAssay (Tox21)

# methodNotes: p53 small molecule agonists, cell-based qHTS assay with human liver microsomes: qHTS cell viability counter screen (AID 1963579); further: nearly all actives have a fitted effect of over 45% in size
# conditionLabel: p53RE-bla HCT-116 viability, ATP luminescence, 16 h, HLM; series mostly up to 66 µM
Inconclusive results are not listed. The source made the active and inactive calls. The call rests on the fitted dose curve.
Classes used: Y (active), N (inactive)

[
  {
    "compound": "ClC(Cl)(Cl)c1ccc(C(Cl)(Cl)Cl)cc1",
    "answerLabel": "N"
  },
  {
    "compound": "O=C(Oc1ccccc1)c1cccc(C(=O)Oc2ccccc2)c1",
    "answerLabel": "N"
  },
  {
    "compound": "Oc1cc2ccccc2c2ccccc12",
    "answerLabel": "Y"
  },
  {
    "compound": "Nc1ccc2c3c(cccc13)-c1ccccc1-2",
    "answerLabel": "N"
  },
  {
    "compound": "CCCCCCOc1ccc(O)cc1",
    "answerLabel": "N"
  },
  {
    "compound": "CN1CCC(N(Cc2cccs2)c2ccccc2)CC1",
    "answerLabel": "N"
  },
  {
    "compound": "CCNCCO",
    "answerLabel": "N"
  },
  {
    "compound": "O=C(O)CN1C(=O)c2cccc3cccc(c23)C1=O",
    "answerLabel": "N"
  },
  {
    "compound": "CCCCCCCCS(=O)(=O)O",
    "answerLabel": "N"
  },
  {
    "compound": "CCC/C=C(\\C=O)CC",
    "answerLabel": "N"
  },
  {
    "compound": "CCCCCCCCC(CO)CCCCCC (configuration not stated)",
    "answerLabel": "N"
  },
  {
    "compound": "COc1cc2nc(N3CCN(C(=O)C4COc5ccccc5O4)CC3)nc(N)c2cc1OC (configuration not stated)",
    "answerLabel": "N"
  }
]
